The measurements presented in this section are drawn from ChEMBL document CHEMBL3396948.

Recorded IC50 values for a group of compounds are listed next.
# Test system: Trypanosoma brucei rhodesiense
# assay text: Trypanocidal activity against clinical isolate Trypanosoma brucei rhodesiense KETRI 269 assessed as inhibition of trypanosomes after 48 hrs
# Assay type: functional, organism-based
# condition info: KETRI 269, 48 h
Your answer should be a plain number; it is taken to be in nM.

NCCCN(CCCCN(CCCN)C1c2ccccc2CCc2ccccc21)C1c2ccccc2CCc2ccccc21 : 1690

# next compound below
Exam item: Provide IC50, tested on Trypanosoma brucei rhodesiense, for NCCCCN(CCCN)C1c2ccccc2CCc2ccccc21 .
Marked response: 4300

----------
# System: Trypanosoma brucei rhodesiense
# assay text: Trypanocidal activity against clinical isolate Trypanosoma brucei rhodesiense KETRI 243 assessed as inhibition of trypanosomes after 48 hrs
# Type: functional, organism-based
# condition info: KETRI 243, 48 h
parameter measured: IC50 (nM)
Your answer should be a plain number; it is taken to be in nM.

Some entries whose results are on file:
NCCCCN(CCCN)C1c2ccccc2CCc2ccccc21 : 4500
NCCCN(CCCCN(CCCN)C1c2ccccc2CCc2ccccc21)C1c2ccccc2CCc2ccccc21 : 1500

# next compound below
Exam item: Provide IC50, tested on Trypanosoma brucei rhodesiense, for CN(C)CCNC1c2ccccc2CCc2ccccc21 .
Marked response: 2000
